biological target: Polyunsaturated fatty acid lipoxygenase ALOX12 (Homo sapiens) (UniProt P18054); assay: Confirmatory qHTS assay for inhibitors of human arachidonate 12S-lipoxygenase (ALOX12): Round 2; conditions: purified human 12-LOX, xylenol orange absorbance; series mostly up to 125 µM
Sequence (P18054 whole entry, looked up): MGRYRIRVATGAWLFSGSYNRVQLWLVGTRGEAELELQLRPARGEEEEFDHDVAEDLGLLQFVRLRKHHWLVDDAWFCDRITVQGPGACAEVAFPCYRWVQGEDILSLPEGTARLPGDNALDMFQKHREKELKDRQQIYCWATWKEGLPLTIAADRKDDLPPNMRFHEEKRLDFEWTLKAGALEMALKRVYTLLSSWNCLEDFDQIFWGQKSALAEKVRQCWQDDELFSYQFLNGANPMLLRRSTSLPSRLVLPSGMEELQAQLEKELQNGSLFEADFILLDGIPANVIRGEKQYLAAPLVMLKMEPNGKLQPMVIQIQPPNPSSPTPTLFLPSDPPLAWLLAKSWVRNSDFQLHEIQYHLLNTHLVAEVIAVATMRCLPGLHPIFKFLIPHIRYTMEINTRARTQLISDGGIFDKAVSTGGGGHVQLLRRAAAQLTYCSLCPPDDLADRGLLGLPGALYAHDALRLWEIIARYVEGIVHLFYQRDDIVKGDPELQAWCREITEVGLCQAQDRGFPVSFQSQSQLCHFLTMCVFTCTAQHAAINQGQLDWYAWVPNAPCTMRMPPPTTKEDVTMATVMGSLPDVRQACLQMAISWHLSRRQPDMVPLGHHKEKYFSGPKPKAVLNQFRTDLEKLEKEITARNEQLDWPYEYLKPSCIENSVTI
Out of some 1,100 compounds screened, about 70 (6%) were called active. About 22% were inconclusive and are not listed. Calls follow the shape of the dose curve; as a rule, active = well fitted curve in the direction sought with a large enough effect; inconclusive = small, poorly fitted or top-dose-only effect, or another doubt; inactive = no such curve, though single readings can be large or run the other way. The sample as a whole holds a higher share of actives than the screen did.
Entry note: the call must match one of true (1) = active, false (0) = inactive

Ask | Hi, do you know how COCCNC(=O)c1cc(C2CC2)nc2onc(C3CCCN3)c12 (stereo unspecified) came out in this test?
Reply | false (0)

Ask | For O=C(c1cc(-c2ccco2)nn1-c1cccc(Cl)c1)N1CCCCC1 , what call appears in the results of this test?
Reply | true (1)

Ask | Dear all, I need the recorded test outcome for CN1CC(=O)N(C2CCNCC2)Cc2c(NC3CCCCC3)ncnc21 , thank you.
Reply | false (0)

Ask | Hi, do you know how O=C(NC1CCCCC1)N1Cc2[nH]cnc2C[C@H]1c1nc(-c2cccc([N+](=O)[O-])c2)no1 came out in this test?
Reply | true (1)

Ask | Per the assay record, what outcome was assigned to CN(C)CCCC(=O)N1Cc2ccccc2CC2(CCCCN2Cc2ccccc2)C1 (stereo unspecified) ?
Reply | false (0)

Ask | Kindly provide the recorded test outcome for the following molecule: O=C(c1ccc(C(F)(F)F)cc1)N1CCc2nc(C3CC3)nc(-c3ccc(Cl)cc3)c2C1
Reply | false (0)

Ask | Query: recorded result category for O=C1NCc2ccccc2CC12CCN(Cc1c(F)cccc1F)C2 (stereo unspecified) in this test
Reply | false (0)

Ask | Please indicate how the test categorized Clc1ccc(NCCN2CCCC2)cc1 .
Reply | true (1)

Ask | For CC(=O)Nc1ccc(CN2CCC(c3nc4ccc(C)cc4c(=O)[nH]3)CC2)cc1 , which call appears in the assay record?
Reply | false (0)

Ask | Hi, do you know how N#Cc1ccc(CN2CCn3c(nn(-c4cccc(Cl)c4)c3=O)C2)cc1 came out in this test?
Reply | false (0)

Ask | Field: outcome | Entry: O=C(c1ccc(C(F)(F)F)cc1)N1CCC2(CC1)C(=NC1CCCCC1)NC(=O)N2c1cc(F)cc(F)c1
Reply | false (0)

Ask | Called result for O=c1n(-c2cccc(Cl)c2)nc2n1CCN([S+](=O)([O-])c1ccccc1)C2
Reply | false (0)

Ask | Please indicate how the test categorized O=C(c1cc(C2CC2)nc2c1c(C1CCCN1)nn2-c1ccccc1)N1CCC(F)CC1 (stereo unspecified) .
Reply | false (0)

Ask | How did this test come out for OCC1CN(Cc2ccc(Cl)cc2)CC12CCNCC2 (stereo unspecified) ?
Reply | false (0)

Ask | What classification did CCn1cc(-c2ccc(C)cc2)cc1C(=O)N1CCN(c2ccccn2)CC1 end up with in this test?
Reply | false (0)

Ask | Identify the outcome logged in this assay for the molecule shown: O=C(c1ccccc1)N1CCn2c(nn(-c3cccc(Cl)c3)c2=O)C1
Reply | false (0)

Ask | Tell me the assay call for c1cc(NCCN2CCCC2)ccn1 please.
Reply | false (0)

Ask | // return assay outcome for O=C(O)CCC(=O)N1Cc2ccccc2CC2(CCCN2Cc2cccnc2)C1 (stereo unspecified)
Reply | false (0)

Ask | Just curious, what result did NCC(=O)N1Cc2ccccc2CC2(CCCCN2CC2CCOCC2)C1 (stereo unspecified) get here?
Reply | false (0)

Ask | Recorded test outcome, item CN(C)CCCC(=O)N1Cc2ccccc2CC2(CCCCN2CC2CCNCC2)C1 (stereo unspecified)
Reply | false (0)

Ask | // param item: O=S(=O)(Nc1ncc(CN2CC[C@H]3CNC[C@H]32)cn1)c1ccccc1 ; yields the recorded call
Reply | false (0)

Ask | Record lookup: outcome of this test for CC(C)C[C@@H](N)C(=O)O ?
Reply | false (0)

Ask | Answer briefly: the call reported for CC(=O)N1CCC(C(=O)N2CCC3(CC2)NC(=O)N(c2cccc(Cl)c2)N3)CC1 in this assay.
Reply | true (1)

Ask | Kindly provide the recorded test outcome for the following molecule: CN1CC(=O)N(C2CCCNCC2)Cc2c1ncnc2N1CCC(N2CCCCC2)CC1 (stereo unspecified)
Reply | false (0)

Ask | Please share the test call associated with COc1ccccc1-c1ccc(CN2CCCC(c3nc4ccc(F)cc4c(=O)[nH]3)C2)cc1 (stereo unspecified) .
Reply | false (0)

Ask | Any idea what this test logged for O=C1Nc2ccccc2CC12CN(CC1CCCC1)C2 ?
Reply | false (0)

###

molecular target: Polyunsaturated fatty acid lipoxygenase ALOX12 (Homo sapiens); experiment: Confirmatory qHTS assay for inhibitors of human arachidonate 12S-lipoxygenase (ALOX12): Round 2; conditions: purified human 12-LOX, xylenol orange absorbance; series mostly up to 125 µM
In all, about 1,100 compounds went through this assay and about 70 (6%) were called active. Roughly 22% stayed inconclusive and do not appear here. The call rests on the fitted dose curve; in most records, active means well fitted curve in the direction sought with a large enough effect; inconclusive means small, poorly fitted or top-dose-only effect, or another doubt; inactive means no such curve, though single readings can be large or run the other way. This excerpt belongs to a sample that is enriched for actives.
Lab note: assign the record to one of Yes for active, No for inactive

Ask | What outcome does the record of this test show for CCC(=O)N1Cc2ccccc2CC2(CCCN(CC3CCNCC3)C2)C1 (centres undefined) ?
Reply | No

Ask | # fetch the recorded call for NC(=O)c1cccc(CN2CCC3(CC2)Cc2ccccc2N(C(=O)c2ccc(Cl)cc2)C3)c1 here
Reply | Yes

Ask | So what was the verdict on CCC(=O)N1Cc2ccccc2CC2(CCN(Cc3ccncc3)CC2)C1 in this test?
Reply | No

Ask | Record request — test call for CNc1oc(-c2ccc(Cl)c(Cl)c2)nc1C#N
Reply | No

Ask | Give the logged outcome of this assay for the following molecule: O=C(C1CCCC1)N1Cc2ccccc2CC2(CCN(Cc3cccnc3)C2)C1 (centres undefined)
Reply | No

Ask | Write down the call the test reported for this molecule. Item: Cc1cc(C(=O)NCc2ccc(F)cc2)c2c(C3CCNC3)noc2n1 (centres undefined)
Reply | No

Ask | For this molecule, state the assay outcome: CCCC(=O)N1Cc2ccccc2CC2(CCN(Cc3ccccc3)CC2)C1
Reply | No

Ask | # lookup: test call for CC(=O)N1CCN(C(=O)CSCC(=O)O)C[C@H]1C(=O)N[C@H]1CCCNC1=O
Reply | No

Ask | Record request — test call for CNC(C)c1ccc(Oc2ccccc2)cc1 (centres undefined)
Reply | No

Ask | For COc1ccc(CN2Cc3[nH]cnc3C[C@H]2C(=O)NCc2ccco2)cc1 , what call appears in the results of this test?
Reply | No

Ask | Entry O=C(C1CCCC1)N1CC2(CCN(Cc3ccc(Cl)cc3)C2)Cc2ccccc21 (centres undefined) : call = ?
Reply | Yes

Ask | So what was the verdict on COc1cccc(CC(=O)N2CC(CO)C3(CCNCC3)C2)c1 (centres undefined) in this test?
Reply | No

Ask | Would you mind telling me which call this test gave CCC(=O)NC(c1cccs1)c1cc([N+](=O)[O-])c2cccnc2c1O (centres undefined) ?
Reply | Yes

Ask | // param item: Fc1ccc(OC2CN(Cc3ccc(C(F)(F)F)cc3)C2)cc1F ; yields the recorded call
Reply | No
